System: Leishmania donovani
Experiment: Antileishmanial activity against Leishmania donovani promastigotes assessed as parasitic growth inhibition at 25 uM incubated for 3 days by resazurin dye based assay relative to control
Assay type: functional
Conditions: 72 h, time 3 day

molecule	study system	unit of measurement	inhibition at 25 µM
COc1ccc(OC)c(/C=C2\Oc3cc(OCCCN4CCCC4)ccc3C2=O)c1	Leishmania donovani	%	103
COc1cccc(/C=C2\Oc3cc(OCCCN4CCCC4)ccc3C2=O)c1OC	Leishmania donovani	%	109
COc1cccc(/C=C2\Oc3cc(OCCN4CCCC4)ccc3C2=O)c1	Leishmania donovani	%	112
COc1ccc(OC)c(/C=C2\Oc3cc(OCCN4CCCC4)ccc3C2=O)c1	Leishmania donovani	%	115
CCN(CC)CCCOc1ccc2c(c1)O/C(=C\c1cccc(OC)c1)C2=O	Leishmania donovani	%	114
COc1ccc(/C=C2\Oc3cc(OCCCCCN4CCCCC4)ccc3C2=O)cc1OC	Leishmania donovani	%	115
CCCCCCCCCCCCCCCCCCOCC(COP(=O)([O-])OCC[N+](C)(C)C)OC (stereo not given) [EDELFOSINE]	Leishmania donovani	%	108
CCN(CC)CCOc1ccc2c(c1)O/C(=C\c1ccccc1OC)C2=O	Leishmania donovani	%	110
COc1ccc(/C=C2\Oc3cc(OCCN4CCCC4)ccc3C2=O)cc1	Leishmania donovani	%	108
COc1ccc(/C=C2\Oc3cc(OCCN4CCCCC4)ccc3C2=O)cc1OC	Leishmania donovani	%	122

----------
Tested on: Leishmania donovani
Assay: Antileishmanial activity against Leishmania donovani promastigotes assessed as parasitic growth inhibition at 25 uM incubated for 3 days by resazurin dye based assay relative to control
Type: functional
Conditions: 72 h, time 3 day
The compounds listed here are annotated with their inhibition at 25 µM.

smiles data	inhibition at 25 µM
COc1ccc(/C=C2\Oc3cc(OCCCN4CCCCC4)ccc3C2=O)cc1OC	119%
CCN(CC)CCOc1ccc2c(c1)O/C(=C\c1cccc(OC)c1)C2=O	115%
COc1ccc(/C=C2\Oc3cc(OCCN4CCCCC4)ccc3C2=O)cc1	104%
COc1cc(/C=C2\Oc3cc(OCCCN4CCCC4)ccc3C2=O)cc(OC)c1	104%

----------
The compounds listed here are annotated with their inhibition at 25 µM.
Tested on: Leishmania donovani
Experiment: Antileishmanial activity against Leishmania donovani promastigotes assessed as parasitic growth inhibition at 25 uM incubated for 3 days by resazurin dye based assay relative to control
Assay type: functional
Details: 72 h, time 3 day
parameter measured: inhibition at 25 µM (%)

smiles data	parameter measured	observed value
COc1cccc(/C=C2\Oc3cc(OCCN4CCOCC4)ccc3C2=O)c1	inhibition at 25 µM	80
COc1ccc2c(c1)O/C(=C\c1ccc(O)c(O)c1)C2=O	inhibition at 25 µM	105
COc1ccc(/C=C2\Oc3cc(OCCCN4CCCC4)ccc3C2=O)cc1OC	inhibition at 25 µM	120
COc1cc(/C=C2\Oc3cc(OCCN4CCCC4)ccc3C2=O)cc(OC)c1OC	inhibition at 25 µM	126
COc1ccccc1/C=C1\Oc2cc(OCCN3CCCC3)ccc2C1=O	inhibition at 25 µM	69
COc1ccccc1/C=C1\Oc2cc(OCCCN3CCCC3)ccc2C1=O	inhibition at 25 µM	107

----------
Test: Cytotoxicity against human THP-1 cells
Type: toxicity, cell-based
The compounds listed here are annotated with their CC50.

compound	unit of measurement	CC50
COc1ccc(/C=C2\Oc3cc(OCCN4CCCCC4)ccc3C2=O)cc1OC	µM	27.4
COc1ccc(OC)c(/C=C2\Oc3cc(OCCCN4CCCC4)ccc3C2=O)c1	µM	6.6
COc1ccc(/C=C2\Oc3cc(OCCCN4CCCC4)ccc3C2=O)cc1OC	µM	26.9
COc1cc(/C=C2\Oc3cc(OCCN4CCCC4)ccc3C2=O)cc(OC)c1OC	µM	26.2
COc1cccc(/C=C2\Oc3cc(OCCN4CCCC4)ccc3C2=O)c1	µM	28.9
COc1ccccc1/C=C1\Oc2cc(OCCCN3CCCC3)ccc2C1=O	µM	14.3
COc1cc(/C=C2\Oc3cc(OCCCN4CCCC4)ccc3C2=O)cc(OC)c1	µM	15.3
COc1cccc(/C=C2\Oc3cc(OCCCN4CCCC4)ccc3C2=O)c1OC	µM	33.5
COc1ccc(/C=C2\Oc3cc(OCCN4CCCCC4)ccc3C2=O)cc1	µM	40.7
COc1ccc(/C=C2\Oc3cc(OCCCCCN4CCCCC4)ccc3C2=O)cc1OC	µM	26.1
COc1ccc(/C=C2\Oc3cc(OCCCN4CCCCC4)ccc3C2=O)cc1OC	µM	28.4
CCCCCCCCCCCCCCCCCCOCC(COP(=O)([O-])OCC[N+](C)(C)C)OC (configuration not stated)	µM	12.9
CCN(CC)CCOc1ccc2c(c1)O/C(=C\c1cccc(OC)c1)C2=O	µM	39
CCN(CC)CCOc1ccc2c(c1)O/C(=C\c1ccccc1OC)C2=O	µM	17.2
COc1ccc(/C=C2\Oc3cc(OCCN4CCCC4)ccc3C2=O)cc1	µM	21.5
CCN(CC)CCCOc1ccc2c(c1)O/C(=C\c1cccc(OC)c1)C2=O	µM	19.3
COc1ccc(OC)c(/C=C2\Oc3cc(OCCN4CCCC4)ccc3C2=O)c1	µM	10.5
